Biological target: Cytochrome P450 2C9 (Homo sapiens)
Assay: Cytochrome panel assay with activity outcomes
Conditions: recombinant CYP, pro-luciferin dealkylation, luminescence, p450-cyp2c9; series mostly up to 57.1 µM
Out of some 16,000 compounds screened, about 4,000 (25%) were called active. Not shown: some 26% with an inconclusive outcome. A selection follows.
MEASUREMENT TYPE: AC50

>  <SMILES TEXT>
Cc1cccc(C)c1NC(=O)/C(C#N)=C/c1cccs1

>  <TARGET SYSTEM>
Cytochrome P450 2C9 (Homo sapiens)

>  <READING>
11.2 µM (active)

$$$$
>  <SMILES TEXT>
Cc1cccc(-n2nnc3cnn(C)c3c2=O)c1

>  <TARGET SYSTEM>
Cytochrome P450 2C9 (Homo sapiens)

>  <READING>
inactive

$$$$
>  <SMILES TEXT>
CC1(C)CCC=[N+]1[O-]

>  <TARGET SYSTEM>
Cytochrome P450 2C9 (Homo sapiens)

>  <READING>
inactive

$$$$
>  <SMILES TEXT>
C=CCCCCCCCCC(=O)Nc1c[nH]c(=O)[nH]c1=O

>  <TARGET SYSTEM>
Cytochrome P450 2C9 (Homo sapiens)

>  <READING>
inactive

$$$$
>  <SMILES TEXT>
Cc1cccc(Cn2ncc(Cl)c(Cl)c2=O)c1

>  <TARGET SYSTEM>
Cytochrome P450 2C9 (Homo sapiens)

>  <READING>
inactive

$$$$
>  <SMILES TEXT>
Cc1ccc(-c2nnc(N(C)C(=O)c3cccnc3)s2)cc1

>  <TARGET SYSTEM>
Cytochrome P450 2C9 (Homo sapiens)

>  <READING>
1.41 µM (active)

$$$$

q: Entry O=C(NC12CC3CC(CC(C3)C1)C2)c1ccc(COc2ccc(Cl)cc2[N+](=O)[O-])o1 has what AC50?
a: 7.94 µM (active)

----------
Reported activity, negative = inhibition values for a set of molecules
Target: Cytochrome P450 2C9 (Homo sapiens) (UniProt P11712)
Sequence (P11712 whole entry, looked up): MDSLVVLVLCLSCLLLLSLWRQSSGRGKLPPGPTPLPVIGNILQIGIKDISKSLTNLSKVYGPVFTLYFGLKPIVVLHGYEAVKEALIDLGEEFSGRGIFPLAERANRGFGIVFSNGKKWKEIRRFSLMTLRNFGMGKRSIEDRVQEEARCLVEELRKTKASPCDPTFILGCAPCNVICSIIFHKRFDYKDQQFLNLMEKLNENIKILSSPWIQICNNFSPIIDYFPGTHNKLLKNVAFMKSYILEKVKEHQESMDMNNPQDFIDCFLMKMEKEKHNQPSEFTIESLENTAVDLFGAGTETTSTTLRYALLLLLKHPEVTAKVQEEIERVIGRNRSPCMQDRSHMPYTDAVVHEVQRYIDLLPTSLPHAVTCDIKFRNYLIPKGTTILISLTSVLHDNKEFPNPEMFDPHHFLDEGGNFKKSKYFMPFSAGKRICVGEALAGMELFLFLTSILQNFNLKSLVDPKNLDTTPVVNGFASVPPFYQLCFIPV
Assay: Cytochrome panel assay with activity outcomes; on activity, negative = inhibition: on the % scale 0 is the no-effect control and ±100 the full control effect
Conditions: recombinant CYP, pro-luciferin dealkylation, luminescence, p450-cyp2c9; series mostly up to 57.1 µM
Hit rate of the full screen: of about 16,000 compounds, about 4,000 (25%) were called active. Inconclusive results (about 26%) are left out. Not all results are given here.

Solved entries:
>  <SMILES TEXT>
Cc1cccc(CNc2ncncc2-c2cccc(C#N)c2)c1

>  <READING>
-7.76% [at 2.29 µM] (inactive)

$$$$
>  <SMILES TEXT>
C[C@@]12CCC(=O)C=C1CC[C@H]1[C@@H]2[C@@H](O)C[C@]2(C)[C@@H]1CC[C@@]2(O)C(=O)COC(=O)C1CCCC1

>  <READING>
-1.4% [at 11.4 µM] (inactive)

$$$$
>  <SMILES TEXT>
COc1ccc2nccc(SCC(=O)O)c2c1

>  <READING>
-6.85% [at 11.4 µM] (inactive)

$$$$
>  <SMILES TEXT>
COc1ccc(CNc2ccnc(-c3ccccc3OC)n2)c(OC)c1

>  <READING>
14.7% [at 2.29 µM] (inactive)

$$$$
>  <SMILES TEXT>
Cc1ccccc1-c1nc(NC2CCNCC2)c2ccccc2n1

>  <READING>
10.8% [at 2.29 µM] (inactive)

$$$$
>  <SMILES TEXT>
NC(N)=Nc1nc2ccc([N+](=O)[O-])cc2[nH]1

>  <READING>
9.74% [at 11.4 µM] (inactive)

$$$$

q: Entry CCOC(=O)CCCN has what activity, negative = inhibition?
a: 4.7% [at 11.4 µM] (inactive)

q: Input CN(C)CCNc1ccccn1
a: 3.16% [at 11.4 µM] (inactive)

q: Input CC(CC(=O)O)(CC(=O)O)c1ccccc1
a: 13.9% [at 11.4 µM] (inactive)
